Origin of values: PubChem BioAssay (NCI)

# Tested on: RXF 393 renal
# method_summary: NCI tumour cell line growth inhibition, 48 h
Where a SMILES comes first, the peptide text is derived from it. Bridges are numbered along the chain shown (N, C = ends). Roman numbers before positions name the chains, in order. [ ]: non-standard residue; d: D form. The star is where a group is joined. Quinoxaline2carbonyl = O=C(c1cnc2ccccc2n1)*; NMeV = CN[CH](C(=O)O)C(C)C; NMeC = CN[CH](CS)C(=O)O
experimental_endpoint: TGI

Asked: Entry under review: O=[As](O)(O)c1ccc(N=Nc2ccc(O)cc2)cc1 . Reported TGI?
Given back: > 100 µM

Asked: Which measured TGI value corresponds to CC(=O)OCC1OC(n2c(=O)[nH]c(=O)c3sccc32)C(Br)C1OC(C)=O (centres undefined) ?
Given back: > 100 µM

Asked: Endpoint output: TGI of COc1cc(-c2cc(-c3cc([N+](=O)[O-])c(/C=N/NC(=O)c4ccncc4)o3)ccc2OC)ccc1C . Value?
Given back: > 100 µM

Asked: Which measured TGI value corresponds to CCOC(=O)c1ccc(C(=O)C(C(C)=O)C(=O)OC(C)(C)C)[nH]1 (centres undefined) ?
Given back: > 100 µM

Asked: Quick one: TGI for Cc1ccc(CC(C)N)cc1 (centres undefined) ?
Given back: > 100 µM

Asked: # get_value(readout='TGI', item= CC1NC(=O)C(NC(=O)c2cnc3ccccc3n2)COC(=O)C(C(C)C)N(C)C(=O)C2CSSCC(C(=O)N(C)C(C(C)C)C(=O)OCC(NC(=O)c3cnc4ccccc4n3)C(=O)NC(C)C(=O)N2C)N(C)C1=O (centres undefined) (I: Quinoxaline2carbonyl-SA[NMeC][NMeV] / II: Quinoxaline2carbonyl-SA[NMeC][NMeV]; ester I:1-II:C, I:C-II:1; disulfide I:3-II:3; configuration not given here) )
Given back: < 0.01 µM

Asked: Entry under review: Brc1ccc(-c2cn3ccncc3n2)cc1 . Reported TGI?
Given back: > 100 µM

Asked: Can you look up the measured TGI of CC1OC(OC2C(OC(=O)[C@@H]3CC(C)(C)C[C@H]4C5=CC[C@@H]6[C@@]7(C)C[C@H](O)[C@H](OC8OC(CO)C(O)C(O)C8O)[C@@](C)(CO)[C@@H]7[C@H](O)C[C@@]6(C)[C@]5(C)CC[C@@]34C)OCC(O)C2O)C(O)C(O)C1O (some centres undefined) for me?
Given back: > 7.5 µM

Asked: What TGI value was documented for this compound, COc1nc(N)c(N=CC(OC(C)=O)C(OC(C)=O)C(COC(C)=O)OC(C)=O)c(=O)n1C (centres undefined) ?
Given back: > 100 µM
